I'd be grateful if you could share measured Ratio for these entries.
- Species on record: Homo sapiens
- Assay method text: Selectivity ratio of Ki for human SERT to IC50 for human recombinant MPO-mediated LDL oxidation

| Molecule | Property label | Result |
| --- | --- | --- |
| NC(=O)CCCc1c[nH]c2ccc(F)cc12 | Ratio | 35 |

List reported Ratio for each of these molecules:
1. NCCc1c[nH]c2c(F)cccc12
2. OCCNCCc1c[nH]c2ccc(F)cc12

1: 1; 2: 1

----------
- Target desc: UniProt:P31645
- Sequence (P31645 whole entry): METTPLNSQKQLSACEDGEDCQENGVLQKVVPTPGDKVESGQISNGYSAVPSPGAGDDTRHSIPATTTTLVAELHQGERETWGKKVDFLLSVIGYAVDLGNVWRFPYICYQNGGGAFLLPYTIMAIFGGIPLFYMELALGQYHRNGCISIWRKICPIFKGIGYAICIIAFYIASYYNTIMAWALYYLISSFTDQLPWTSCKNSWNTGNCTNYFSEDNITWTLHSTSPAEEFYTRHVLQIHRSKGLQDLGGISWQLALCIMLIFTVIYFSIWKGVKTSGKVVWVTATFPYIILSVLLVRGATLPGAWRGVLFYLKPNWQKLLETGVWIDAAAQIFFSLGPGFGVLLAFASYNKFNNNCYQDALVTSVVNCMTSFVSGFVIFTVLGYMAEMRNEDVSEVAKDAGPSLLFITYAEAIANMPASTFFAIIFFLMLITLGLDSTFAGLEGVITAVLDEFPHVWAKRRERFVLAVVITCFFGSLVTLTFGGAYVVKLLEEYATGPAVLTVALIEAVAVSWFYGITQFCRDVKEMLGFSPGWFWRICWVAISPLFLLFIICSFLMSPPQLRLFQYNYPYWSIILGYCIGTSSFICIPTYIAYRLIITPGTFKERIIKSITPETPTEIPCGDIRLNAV
- Assay method text: Inhibition of serotonin reuptake at human SERT expressed in HEK293 cells coexpressing macrophage scavenger receptor
- Type: cell-based
- Condition info: read-out: Ki
Property label: Ki (µM)
Answers are plain numbers, in µM.

List reported Ki for each of these molecules:
1. NCC(N)CCc1c[nH]c2ccc(F)cc12 (centres undefined)
2. NCCSCCc1c[nH]c2ccc(F)cc12
3. NCCCCc1c[nH]c2c(F)cccc12
4. N#CCCCc1c[nH]c2ccc(F)cc12
5. CCN(CCCc1c[nH]c2ccc(F)cc12)S(C)(=O)=O
6. NCCCc1c[nH]c2c(F)cccc12
7. NCCSCCCc1c[nH]c2ccc(F)cc12
8. OCCNCCCc1c[nH]c2ccc(F)cc12

1. 0.012
2. 0.0023
3. 0.008
4. 0.184
5. 0.012
6. 0.024
7. 0.0009
8. 0.062

List reported Ki for each of these molecules:
1. Fc1ccc2[nH]cc(CCCNCc3ccccc3)c2c1
2. NCCSCCc1c[nH]c2c(F)cccc12
3. OCCNCCc1c[nH]c2ccc(F)cc12
4. Fc1ccc2[nH]cc(CCCN3CCN(c4ccccc4)CC3)c2c1
5. NCCSCCCc1c[nH]c2c(F)cccc12
6. NCCc1c[nH]c2c(F)cccc12

0.053
0.024
0.01
0.036
0.539
0.029
